# study-target: Neutrophil collagenase (Homo sapiens)
# Sequence (P22894 whole entry): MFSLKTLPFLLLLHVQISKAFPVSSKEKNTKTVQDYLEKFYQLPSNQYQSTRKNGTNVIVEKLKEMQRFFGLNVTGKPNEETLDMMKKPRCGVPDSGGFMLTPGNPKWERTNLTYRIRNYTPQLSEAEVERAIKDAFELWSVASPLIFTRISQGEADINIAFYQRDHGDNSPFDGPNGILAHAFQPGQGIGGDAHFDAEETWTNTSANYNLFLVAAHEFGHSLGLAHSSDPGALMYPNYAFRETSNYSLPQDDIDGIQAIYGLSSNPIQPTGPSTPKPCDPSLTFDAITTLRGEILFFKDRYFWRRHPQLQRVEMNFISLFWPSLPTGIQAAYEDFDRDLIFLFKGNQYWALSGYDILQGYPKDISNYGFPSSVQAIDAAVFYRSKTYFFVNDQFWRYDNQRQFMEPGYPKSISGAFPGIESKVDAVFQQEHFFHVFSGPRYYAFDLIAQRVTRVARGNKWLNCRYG
# method-description: Inhibition of human neutrophil collagenase [Matrix Metalloprotease-8, MMP-8]
observable: pIC50
Numbers only, as −log10 of the molar value.

Past entries and their recorded results:
compound-smiles: CNC(=O)c1ccc(Oc2ccc(S(=O)(=O)N3Cc4ccccc4C[C@@H]3C(=O)C(=O)O)cc2)cc1
study-target: Neutrophil collagenase (Homo sapiens)
pIC50: 7.40
--
compound-smiles: O=C(O)C(=O)[C@H]1Cc2cc([N+](=O)[O-])ccc2CN1S(=O)(=O)c1ccc(-c2ccc(Cl)cc2)cc1
study-target: Neutrophil collagenase (Homo sapiens)
pIC50: 7.70
--
compound-smiles: O=C(NO)[C@H]1Cc2ccccc2CN1S(=O)(=O)c1ccc(N2CCOCC2)cc1
study-target: Neutrophil collagenase (Homo sapiens)
pIC50: 7.00
--
compound-smiles: CN(C)c1ccc(Oc2ccc(S(=O)(=O)N3Cc4ccccc4C[C@@H]3C(=O)C(=O)O)cc2)cc1
study-target: Neutrophil collagenase (Homo sapiens)
pIC50: 7.52
--
compound-smiles: O=C(NO)[C@H]1Cc2ccccc2CN1S(=O)(=O)c1ccc2[nH]c(-c3ccccc3)nc2c1
study-target: Neutrophil collagenase (Homo sapiens)
pIC50: 7.40
--
compound-smiles: O=C(NO)[C@H]1Cc2ccccc2CN1S(=O)(=O)c1ccc(C(F)(F)F)cc1
study-target: Neutrophil collagenase (Homo sapiens)
pIC50: 7.30
--
compound-smiles: CSc1nccc(-c2ccc(S(=O)(=O)N3Cc4ccccc4C[C@@H]3C(=O)C(=O)O)s2)n1
study-target: Neutrophil collagenase (Homo sapiens)
pIC50: 6.00
--
compound-smiles: O=C(O)C(=O)[C@H]1Cc2ccccc2CN1S(=O)(=O)CCc1ccc(-c2ccccc2)cc1
study-target: Neutrophil collagenase (Homo sapiens)
pIC50: 7.70

Parameters: items (list). Returns: pIC50 for each item.
1. CN(C)c1ccc(-c2ccc(S(=O)(=O)N3Cc4ccccc4C[C@@H]3C(=O)NO)cc2)cc1
2. COc1ccc(S(=O)(=O)N2Cc3cc(NC(=O)[C@H](C)NC(=O)OC(C)(C)C)ccc3C[C@H]2C(=O)NO)cc1
3. CSc1nccc(-c2ccc(S(=O)(=O)N3Cc4ccccc4C[C@@H]3C(=O)NO)s2)n1

8.70
8.70
7.70

Batch of 8 compounds: report pIC50 for each.
1. COc1ccc(S(=O)(=O)N2Cc3cc(O)ccc3C[C@@H]2C(=O)NO)cc1
2. O=C(NO)[C@H]1Cc2ccccc2CN1S(=O)(=O)c1ccc(-c2ccc(Cl)cc2)cc1
3. O=C(NO)[C@H]1Cc2ccccc2CN1S(=O)(=O)CCc1ccncc1
4. O=C(NO)[C@H]1Cc2ccccc2CN1S(=O)(=O)c1ccc(-c2ccccc2)cc1
5. O=C(NCc1csc(S(=O)(=O)N2Cc3ccccc3C[C@@H]2C(=O)NO)c1)c1ccccc1
6. CCOC(=O)Nc1ccc(S(=O)(=O)N2Cc3ccccc3C[C@@H]2C(=O)NO)cc1
7. CCCCOc1ccc(S(=O)(=O)N2Cc3ccccc3C[C@@H]2C(=O)NO)cc1
8. COC(=O)c1csc(S(=O)(=O)N2Cc3ccccc3C[C@@H]2C(=O)NO)c1OC

9.00
8.52
7.52
8.70
6.10
7.52
8.70
7.10
